# TESTED TARGET: T1, mouse matriptase-2 ECD protein his tag (mouse, UniProt Q9DBI0 80-811)
# T1 construct: aa 80-811 of Q9DBI0 with C-terminal linker and His tag; also called mouse MTP-2 ECD; moMTP-2
# T1 sequence: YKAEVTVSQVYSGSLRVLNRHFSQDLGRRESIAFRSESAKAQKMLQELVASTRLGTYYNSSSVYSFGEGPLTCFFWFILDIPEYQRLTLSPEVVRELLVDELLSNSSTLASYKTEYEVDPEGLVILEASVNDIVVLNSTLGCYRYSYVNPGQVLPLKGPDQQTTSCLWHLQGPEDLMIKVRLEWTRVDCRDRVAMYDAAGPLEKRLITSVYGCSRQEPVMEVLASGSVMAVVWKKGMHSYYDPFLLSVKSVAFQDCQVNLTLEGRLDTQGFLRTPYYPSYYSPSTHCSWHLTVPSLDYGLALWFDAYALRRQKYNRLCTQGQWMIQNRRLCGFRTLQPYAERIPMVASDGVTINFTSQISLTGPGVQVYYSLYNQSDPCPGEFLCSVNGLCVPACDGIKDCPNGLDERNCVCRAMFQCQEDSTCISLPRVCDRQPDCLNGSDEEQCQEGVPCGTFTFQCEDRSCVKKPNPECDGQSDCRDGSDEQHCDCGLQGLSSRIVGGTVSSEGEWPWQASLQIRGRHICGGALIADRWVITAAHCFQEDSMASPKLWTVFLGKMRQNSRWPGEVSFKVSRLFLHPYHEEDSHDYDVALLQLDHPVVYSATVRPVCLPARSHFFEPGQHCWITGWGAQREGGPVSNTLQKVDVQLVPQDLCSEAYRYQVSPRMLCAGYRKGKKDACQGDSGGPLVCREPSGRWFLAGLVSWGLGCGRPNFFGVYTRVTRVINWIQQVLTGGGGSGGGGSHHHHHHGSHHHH
# PROTOCOL NOTES: SPR (Biacore 8K), huIgG4PE captured on anti-human Fc, MTP-2 ECD as analyte, 1:1 fit

- BINDER: "NORI-014 (antibody, human IgG4 S228P, lambda, V domains shown, human IgG4PE, lambda) VH: EVQLVESGGGLIQAGRSLRLSCAASGFTFDEHVMYWVRQIPGKGLEWISSITWKSDIIAYADSVKGRFTISRDNAKNALYLQMNSLRAEDTALYYCAREKDGDFYYYYFAMDVWGQGTTVTVSS VL: QSALTQPPSASGSPGQSVTLSCTGTSSDVGYYNYVSWYLQHPGKAPKLMIYEVSKRPSGVPDRFSGSKSANTASLTVSGLQAEDEADYYCSSYAGSNKVVFGGGTKVTVLG"
  kon (M⁻¹ s⁻¹): 12100
